- Tested on: SK-MEL-28 melanoma
- assay_text: NCI tumour cell line growth inhibition, 48 h

| molecule | study_system | TGI |
| --- | --- | --- |
| COCC[N+](CCNC(=O)c1cccc2c(N)c3cccc(C)c3nc12)(CCOC)Cc1ccc([N+](=O)[O-])cc1 | SK-MEL-28 melanoma | 52 µM |
| Cc1cccc2nc3n(c12)C(=O)c1ccccc1-3 | SK-MEL-28 melanoma | > 100 µM |
| COc1ccc(C(=O)/C=C2\c3ccccc3C(=O)N2C)cc1 | SK-MEL-28 melanoma | > 100 µM |
| c1ccc2c(c1)ccc1ncccc12 | SK-MEL-28 melanoma | > 100 µM |
| OC(c1ccc(F)cc1)C(F)(F)c1nc(-c2ccccc2)no1 (stereo not given) | SK-MEL-28 melanoma | > 100 µM |
| COc1cc(CNc2nc3ccccc3nc2-c2cccs2)cc(OC)c1OC | SK-MEL-28 melanoma | > 100 µM |
| COC(=O)c1cc(C)n2c1CS[C@@H]2c1ccccc1 | SK-MEL-28 melanoma | > 100 µM |
| C=C[C@@]1(C)CC2CC[C@]3(C)C(C)=CC(=O)CC3[C@]2(C)CC1O (stereo not given in full) | SK-MEL-28 melanoma | > 100 µM |
| Cc1cc(Cl)ccc1NC(=O)/C(Cl)=C(/Cl)C(=O)O | SK-MEL-28 melanoma | 41 µM |
| COc1cc2c(c(N)c1OC)C(=O)/C(=C/c1cc(C)c(O)c(C)c1)C2 | SK-MEL-28 melanoma | > 100 µM |
| COC(=O)C(/C(=N/N)C(=O)Nc1ccc(C)c(C)c1)c1nc2ccc(Cl)cc2[nH]c1=O (stereo not given) | SK-MEL-28 melanoma | > 100 µM |
| O=C1Nc2ccccc2C1(c1ccc(O)c(F)c1)c1ccc(O)c(F)c1 | SK-MEL-28 melanoma | 52 µM |
| Nc1ccccc1/C=N\Nc1ccccc1 | SK-MEL-28 melanoma | > 100 µM |
| Cn1c(=O)nc2n(CCO)ccnc-2c1=O | SK-MEL-28 melanoma | > 100 µM |
| O=C(CCCCC(=O)N/N=C\c1ccccc1Cl)N/N=C\c1ccccc1Cl | SK-MEL-28 melanoma | > 100 µM |
| CCCN(CCC)c1ccc(C=O)cc1 | SK-MEL-28 melanoma | > 100 µM |
| OCCOCCN1CCN(c2nc(N3CCCC3)c3nc(Cl)c(NCc4ccccc4)nc3n2)CC1 | SK-MEL-28 melanoma | 30.2 µM |
| Cn1c(=O)oc2cc(C(=S)N3CCC(Cc4ccccc4)CC3)ccc21 | SK-MEL-28 melanoma | > 100 µM |
| CCN(CC)CCCC(C)NC(=O)c1cc(-c2nccn2C)nc2ccc(C)cc12 (stereo not given) | SK-MEL-28 melanoma | > 100 µM |
| C[C@]12CCC3[C@@H](C[C@H]4OC(=O)[C@@]35CCC(=O)C=C45)C1CCC2=O (stereo not given in full) | SK-MEL-28 melanoma | > 100 µM |
| COc1c(C(=O)/C(=N/Nc2ccccc2)C(C)=O)c(O)c(OC)c2occc12 | SK-MEL-28 melanoma | > 100 µM |
| Cc1cc(C)nc(NS(=O)(=O)c2ccc(NC(=O)c3cccc4c(Nc5ccc(S(=O)(=O)Nc6nc(C)cc(C)n6)cc5)c5ccccc5nc34)cc2)n1 | SK-MEL-28 melanoma | 46 µM |
| OC(c1ccsc1)c1cc2ccccc2s1 (stereo not given) | SK-MEL-28 melanoma | > 10 µM |
| CC(=O)Nc1ccc2c3c(cc(O)c2c1)N(C(=O)CCCC(=O)Nc1ccc2c4c(cc(O)c2c1)N(C(=O)OC(C)(C)C)CC4CCl)CC3CCl (stereo not given) | SK-MEL-28 melanoma | > 13 µM |
| COc1ccc(C2=NN(C(=O)c3ccccc3)C(O)(c3cc(F)c(Cl)cc3Cl)C2)cc1OC (stereo not given) | SK-MEL-28 melanoma | > 100 µM |
| CCOC(=O)c1ccc2c(c1)[n+](=O)c(C(=O)c1ccc3ccccc3c1)c(C(F)(F)F)n2[O-] | SK-MEL-28 melanoma | 3.02 µM |
| COc1cc(C2SCC(=O)N2c2ccc(-c3ccc(-n4c(-c5ccccc5)nc5ccccc5c4=O)cc3)cc2)ccc1O (stereo not given) | SK-MEL-28 melanoma | > 100 µM |
| CC/C(Cl)=N\OC(=O)Nc1ccccc1OC(F)(F)F | SK-MEL-28 melanoma | 41.5 µM |
| O=C(/C=C/c1ccccn1)c1ccccc1O | SK-MEL-28 melanoma | 4.22 µM |
| O=C1C=C(c2c(-c3ccccc3)[nH]c3ccccc23)C(=O)N1c1ccccc1 | SK-MEL-28 melanoma | 68.7 µM |
| COc1ccc(C(=O)C(c2ccc(OC)cc2)C2C(=O)Oc3ccccc32)cc1 (stereo not given) | SK-MEL-28 melanoma | > 100 µM |
| C[C@@H]1CCC2[C@@H](C)[C@H](O[C@H]3O[C@@H]4O[C@@]5(C)CCC6[C@H](C)CCC([C@H]3C)[C@]64OO5)O[C@@H]3O[C@@]4(C)CCC1[C@@]23OO4 (stereo not given in full) | SK-MEL-28 melanoma | 27.3 µM |
| O=c1oc2c3ccc4ccccc4c3n(CCN3CCOCC3)c2c2ccccc12 | SK-MEL-28 melanoma | > 100 µM |
| CC(Oc1ccccc1)C(=O)NN (stereo not given) | SK-MEL-28 melanoma | > 100 µM |
| CC(=O)OCc1cccc(O)c1C(=O)CCC=C(C)C | SK-MEL-28 melanoma | > 100 µM |
| CC(C)=CCC[C@](C)(O)[C@H]1CC[C@]2(C)[C@@H]1[C@H](O)C[C@@H]1[C@@]3(C)CC[C@H](O[C@@H]4O[C@H](CO)[C@@H](O)[C@H](O)[C@H]4O)C(C)(C)[C@@H]3CC[C@]12C | SK-MEL-28 melanoma | 34.8 µM |
| COC(=O)c1ccccc1/C=C1\Cc2cc3c(cc2C1=O)CCC3 | SK-MEL-28 melanoma | > 100 µM |
| COC(=O)C1=C(C(=O)OC)SC(=C2c3ccsc3-c3sccc32)S1 | SK-MEL-28 melanoma | > 100 µM |
| COc1cc(C2C(Cl)C(=O)N2NC(=O)c2ccc(NC(C)=O)cc2)cc(Br)c1O (stereo not given) | SK-MEL-28 melanoma | > 100 µM |
| CN(C)CCSC(=Nc1ccccc1)N1C=COC=C1 | SK-MEL-28 melanoma | 40.4 µM |

---

- Tested on: HOP-62 NSCLC
- assay_text: NCI tumour cell line growth inhibition, 48 h; in the data active = GI50 below about 0.43 µM; inactive = the rest
Outcomes: label 1 = active, label 0 = inactive

| compound | category |
| --- | --- |
| CCCCCCNC(=O)c1cc(C#Cc2cc(OC)ccc2OC)ccc1OC | label 0 |
| O=C(N/N=C/c1coc2ccc(Cl)cc2c1=O)c1ccncc1 | label 0 |
| COc1ccc2nc3cccc([N+](=O)[O-])c3c(NCCN(CCO)CCO)c2c1 | label 1 |
| COc1ccc(-c2cn(-c3ccc(Cl)cc3)c(=S)[nH]2)cc1OC | label 0 |
| Cn1cc(C2=C(c3c4n(c5ccccc35)CC(CN)C4)C(=O)NC2=O)c2ccccc21 (stereo not given) | label 0 |

---

- Test system: PC-3 prostate
- assay_text: NCI tumour cell line growth inhibition, 48 h
Reported GI50 values follow for various compounds
metric: GI50

| compound | metric | value_measured |
| --- | --- | --- |
| CCCn1cc(C2=C(c3cn(C)c4ccccc34)C(=O)NC2=O)c2ccccc21 | GI50 | 1.03 µM |
| CN(C)CCCNC(=O)c1cc(NC(=O)CCNC(=O)c2ccc3c(c2)C(=O)c2ccccc2C3=O)cn1C | GI50 | > 100 µM |
| CN(CCCCCl)P(=O)(OCc1ccc([N+](=O)[O-])o1)C(F)(F)c1ccc(CC(=O)N[C@@H](CC(=O)O)C(=O)N[C@@H](Cc2ccc(C(F)(F)P(=O)(OCc3ccc([N+](=O)[O-])o3)N(C)CCCCCl)cc2)C(N)=O)cc1 (some centres undefined) | GI50 | 80.5 µM |
| O=C(N/N=C/c1coc2ccc(Cl)cc2c1=O)c1ccncc1 | GI50 | 59.1 µM |
| COc1cc(C(=O)NC2CCN(C)CC2)ccc1Nc1ncc2c(n1)N(C1CCCC1)CC(F)(F)C(=O)N2C | GI50 | < 0.0249 µM |
| Fc1ccc(CNc2c3ccccc3nc3ccccc23)cc1 | GI50 | 3.11 µM |
| O=C1Nc2ccccc2C1(c1ccc(O)c(F)c1)c1ccc(O)c(F)c1 | GI50 | 1.08 µM |
| CCOCCc1c(O)nc(SC)[nH]c1=O | GI50 | > 100 µM |
| CCc1ccc(CCC(=O)Nc2ncc(Cc3cc(Cl)ccc3Cl)s2)o1 | GI50 | 1.49 µM |
